Source listed as PubChem BioAssay (NCI).

System: SW-620 colon
Test: NCI tumour cell line growth inhibition, 48 h
observedProperty: TGI

Asked: Any idea what TGI came out for "CC(C)(C)c1ccc(O)c(CN(Cc2cc(C(C)(C)C)ccc2O)C2CCCCC2)c1" on SW-620 colon?
Given back: 35.1 µM

Asked: Record: "CC1(C)CN=C(Nc2ccc(F)c(F)c2)S1"
Given back: > 100 µM

Asked: Record: "CCN(CC)C(=S)SS(=O)(=O)c1ccccc1[N+](=O)[O-]"
Given back: > 53.7 µM

Asked: Record: "COc1cc2c(cc1OC)c1c(OC)c(OC)cc3c1c1c2sc(=S)n1CC3"
Given back: > 100 µM

Asked: Record: "O=C(Nn1cnn2c(=O)c3ccccc3nc2c1=O)c1ccccc1"
Given back: > 100 µM

Asked: Record: CCC1=NC(C(F)(F)F)(C(F)(F)F)N=C(/N=C(/N)N(C)C(C(C)C)P(=O)(OC(C)C)OC(C)C)O1 (configuration not stated)
Given back: > 100 µM

Asked: Record: "O=C(O)c1nccnc1C(=O)O"
Given back: > 100 µM

Asked: Record: COC(=O)C(=O)C(C(=O)C(=O)Nc1ccc(C)cc1)c1nc2ccc(C(=O)c3ccccc3)cc2[nH]c1=O (configuration not stated)
Given back: > 100 µM

Asked: Record: O=C1C(Cl)C(c2cc3cc(Br)ccc3nc2Cl)N1c1c(Cl)cccc1Cl (configuration not stated)
Given back: > 25 µM

Asked: Record: "Oc1ccc(-c2cn3cc(C(F)(F)F)ccc3n2)cc1"
Given back: > 100 µM

Asked: Record: "COC(=O)[C@@H]1Cc2cc(O)c(O)cc2C2(CCN(C)CC2)O1"
Given back: > 10 µM

Asked: Record: "CCCCCCCCCOC(=S)NCCCCC"
Given back: > 100 µM

Asked: Record: "O=S(=O)(Nc1ccc2ccccc2c1)c1ccc(-c2cnc(C3CC3)o2)cc1"
Given back: 18.3 µM

Asked: Record: "Cc1cc2c(cc1C)C(=O)/C(=N/Nc1ccc(F)cc1)CCO2"
Given back: > 100 µM

Asked: Record: "CCCCCCCCCc1c(O)c(O)c(CCCCCCCCC)c(CCCCCCCCC)c1CCCCCCCCC"
Given back: > 100 µM

Asked: Record: "O=C(Nc1ccc2c(c1)OCO2)C(=O)c1c[nH]c2cc(F)ccc12"
Given back: > 100 µM

Asked: Record: CCOc1c(C#N)c2c(N)ncnc2n1C1OC(CO)C(O)C1O (configuration not stated)
Given back: > 44.6 µM

Asked: Record: C=C1C(=O)OC2C1C(OC(=O)/C(C)=C\C)CC1(CO1)C1C(O)C=C(C)C21O (configuration not stated)
Given back: 3.34 µM

Asked: Record: "COc1cc(/C=C\c2ccc(OC(C)=O)cc2)cc(OC)c1OC"
Given back: > 100 µM

Asked: Record: "Cc1cc(C)n(CN(Cn2nc(C)cc2C)c2ccccc2)n1"
Given back: 69.8 µM

Asked: Record: COc1ccc(/C=c2/sc3n(c2=O)NC(c2ccc(Cl)cc2)NN=3)cc1 (configuration not stated)
Given back: > 100 µM

Asked: Record: COc1ccc(/C=C2\CC(C)CC3C2=NN(c2ccccc2)C3c2ccc(OC)c(OC)c2)cc1OC (configuration not stated)
Given back: > 100 µM

* * *

System: HL-60(TB) leukemia
Test: NCI tumour cell line growth inhibition, 48 h
observedProperty: TGI (µM)
Quick reminder: number only, in µM, skip the unit.

Asked: Quick one: TGI for "N#Cc1c(N)nc(N2CCSCC2)c(C#N)c1-c1ccc(O)cc1" ?
Given back: 53.1

Asked: Record: "CC(=O)Oc1c(C)c2c(c3ccccc13)OC(C)(C)C2"
Given back: 69.6

Asked: Record: "CC[C@@H](/C=C\CCC1(C[C@@H](N)CCC=C(C)C)OCCO1)O[Si](C(C)C)(C(C)C)C(C)C"
Given back: 23

Asked: Record: "O=c1[nH]c(=O)n(C/C=C/CBr)nc1Br"
Given back: 24.5

Asked: Record: C/C=C(/C)C(=O)OC1C=C(CO)C(=O)C(OC(=O)C(C)(O)C(C)Cl)C1C(C)C (configuration not stated)
Given back: 5.74

Asked: Record: CSc1ccc(C2=NN(C(C)=O)C(c3ccc(F)cc3)C2)cc1 (configuration not stated)
Given back: 23.6

Asked: Record: "c1ccc(C2=Nc3cccc4cccc(c34)N2)cc1"
Given back: 8.14

Asked: Record: CCN(CC)CCCC(C)Nc1cc(/C=C/c2ccc(Cl)cc2)nc2cc(N(C)C)ccc12 (configuration not stated)
Given back: 3.54

Asked: Record: "CC(=O)Oc1c2oc3cc(O)c(O)cc3c2c(OC(C)=O)c2oc3cc(O)c(O)cc3c12"
Given back: 13

Asked: Record: C=C1CC(CN2CCC(=O)NC2=O)(c2ccccc2)OC1=O (configuration not stated)
Given back: 4.04

* * *

Test system: MOLT-4 leukemia
Experiment: NCI tumour cell line growth inhibition, 48 h
observedProperty: TGI

Asked: Any idea what TGI came out for "COc1cccc2cc(C(=O)Nc3ccccn3)c(=N)oc12" on MOLT-4 leukemia?
Given back: 10.6 µM

Asked: Record: COC1(CC[C@H](C)COC2OC(CO)C(O)C(O)C2O)O[C@H]2C[C@H]3[C@@H]4CC=C5C[C@@H](OC6OC(CO)C(O)C(OC7OC(CO)C(O)C(O)C7O)C6OC6OC(C)C(O)C(O)C6O)CC[C@]5(C)[C@H]4CC[C@]3(C)[C@H]2[C@@H]1C (stereo partly drawn)
Given back: > 27.3 µM

Asked: Record: "CC[C@@H](/C=C\CCC1(C[C@@H](N)CCC=C(C)C)OCCO1)O[Si](C(C)C)(C(C)C)C(C)C"
Given back: 37.1 µM

Asked: Record: "CCCCN=C1OCc2[nH][nH]c(=O)c21"
Given back: > 100 µM

Asked: Record: CCCCCCCCCCCCCC(=O)OCC1OC(n2cc(F)c(=O)[nH]c2=O)C(N)C(OC(=O)CCCCCCCCCCCCC)C1O (stereo not drawn)
Given back: > 100 µM

Asked: Record: "COc1cc2ncn(-c3cc(OCc4ccccc4C(F)(F)F)c(C(C)=O)s3)c2cc1OC"
Given back: > 25 µM

Asked: Record: CN(C)CCC1(C2=CCCC2)CC/C(=C\c2ccccc2Cl)C1=O (stereo not drawn)
Given back: 18.3 µM

Asked: Record: CCOC(=O)C1SC(=Nc2ccc(Cl)cc2C)N=C1C (stereo not drawn)
Given back: 47.9 µM

Asked: Record: C#CCN(N=O)C(=O)NCCCC(NC(C)=O)C(=O)NCc1ccccc1 (stereo not drawn)
Given back: > 100 µM

Asked: Record: CCC1=NC(C(F)(F)F)(C(F)(F)F)N=C(/N=C(/N)N(C)C(C(C)C)P(=O)(OC(C)C)OC(C)C)O1 (stereo not drawn)
Given back: > 100 µM

Asked: Record: "CO[C@@H]1[C@H]2[C@@H](C)c3ccoc3C[C@@H]2[C@@]2(C)CC[C@H](OC(=O)c3ccccc3)[C@](C)(C(=O)O)[C@]2(O)[C@@H]1OC(=O)c1ccccc1"
Given back: 38.4 µM

Asked: Record: "O=C(O)c1ccc(Nc2nc3cc(C(F)(F)F)ccc3nc2-c2ccccc2)cc1"
Given back: > 100 µM

Asked: Record: CN(C)c1ccc(C2ON=C(c3ccccc3)N2C23CC4CC(CC(C4)C2)C3)cc1 (stereo not drawn)
Given back: > 10 µM

Asked: Record: "COc1cc2c(cc1OC)c1c(OC)c(OC)cc3c1c1c2sc(=S)n1CC3"
Given back: > 100 µM

Asked: Record: C=C1CCC2C3(C)COC(c4ccc(Cl)cc4)OC3CCC2(C)C1/C=C/C1=CCOC1=O (stereo not drawn)
Given back: > 100 µM

Asked: Record: "CCCCCCCCCOC(=S)NCCCCC"
Given back: 42.6 µM

Asked: Record: COC(=O)C(=O)C(C(=O)C=C(C)C)C(=O)C(=O)Nc1nc2ccc([N+](=O)[O-])cc2s1 (stereo not drawn)
Given back: > 100 µM

Asked: Record: CC(=O)NC(CCCCN(Cc1ccccc1)C(=O)N(CCCl)N=O)C(=O)NCc1ccccc1 (stereo not drawn)
Given back: > 82.1 µM

* * *

System: SK-MEL-2 melanoma
Test: NCI tumour cell line growth inhibition, 48 h
Please go through the items and note down their TGI.
Quick reminder: number only, in µM, skip the unit.

Asked: Quick one: TGI for C=C1C(=O)OC2C1C(OC(=O)/C(C)=C\C)CC1(CO1)C1C(O)C=C(C)C21O (stereo not given) ?
Given back: 12.5

Asked: Record: C[C@]12CC/C(=N\OCCN3CCCCC3)C=C1CCC1C2CC[C@@]2(C)C1CC[C@]2(C)O (stereo not given in full)
Given back: 28.8

Asked: Record: "O=[N+]([O-])c1cccc2nc3ccccc3c(NCCCN3CCCCC3)c12"
Given back: 0.0296

Asked: Record: "O=C(Nc1ccc2c(c1)OCO2)C(=O)c1c[nH]c2cc(F)ccc12"
Given back: 31.1

Asked: Record: "CCN(CC)COC(=S)S"
Given back: 57

Asked: Record: CCCCCCCCCCCCCCCC(=O)OC1C(O)C(CO)OC(OC)C1NC(=O)N(CCCl)N=O (stereo not given)
Given back: 44.3

Asked: Record: "Cn1c2c3c(F)c(F)ccc3nc-2cc2ccccc21"
Given back: 14.1

Asked: Record: "C[C@]12CC[C@@H]3c4ccc(OCCN5CCCC5)cc4CC[C@H]3[C@@H]1CCC2=O"
Given back: 35.1

Asked: Record: CC(=O)NC(CCCCN(Cc1ccccc1)C(=O)N(CCCl)N=O)C(=O)NCc1ccccc1 (stereo not given)
Given back: 62.2

Asked: Record: "CCN(CC)CCNc1ccc(C)c2sc3ccccc3c(=O)c12"
Given back: 10.3

Asked: Record: COc1cc2c(c(OC(C)=O)c1OC(C)=O)-c1ccc(SC)c(=O)cc1C(NC(C)=O)CC2 (stereo not given)
Given back: 7.07

Asked: Record: CCOC(=O)C1SC(=Nc2ccc(Cl)cc2C)N=C1C (stereo not given)
Given back: 35.8

Asked: Record: "CC[C@]12C=CCN3CC[C@@]4(c5ccc(OC)cc5N(C)[C@H]4[C@@](O)(C(=O)OC)[C@@H]1OC(=O)CCC(=O)N[C@H](Cc1c[nH]c4ccccc14)C(=O)OC)[C@@H]32"
Given back: 37.3

Asked: Record: "CC(=O)[O-].[O-]c1c(Cl)cc(Cl)cc1/C=N/Nc1ccccn1.[Zn+2]"
Given back: 1.98

Asked: Record: "CCCCCCN(C)Cc1ccc(OCCOc2ccc(CN(C)CCCCCC)cc2)cc1"
Given back: 3.08

Asked: Record: "CCN(CC)CC(C)(C)C(=O)/C=C/c1ccc(/C=C/C(=O)C(C)(C)CN(CC)CC)cc1"
Given back: 3.32

Asked: Record: COc1ccc2c(c1)N(CCO)C1=C(C(=O)OC1)C2c1ccccc1 (stereo not given)
Given back: 4.74
